What inhibition was measured for each of the following?
target.or.system: 17-beta-hydroxysteroid dehydrogenase type 3 (Homo sapiens)
Sequence (whole entry): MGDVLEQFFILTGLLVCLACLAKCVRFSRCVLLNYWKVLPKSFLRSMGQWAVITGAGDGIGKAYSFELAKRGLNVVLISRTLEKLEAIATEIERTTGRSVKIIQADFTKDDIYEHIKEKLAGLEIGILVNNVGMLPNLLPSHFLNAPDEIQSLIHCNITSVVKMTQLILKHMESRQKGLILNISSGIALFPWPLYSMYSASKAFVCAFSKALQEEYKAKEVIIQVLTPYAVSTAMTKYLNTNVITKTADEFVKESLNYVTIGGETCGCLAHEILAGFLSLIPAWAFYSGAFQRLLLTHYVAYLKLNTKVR
assay.protocol: Inhibition of 17Beta-HSD3 expressed in homogenized HEK293 cells assessed as transformation of [14C]-4-androstene-3,17-dione into [14C]-testosterone in presence of NADPH at 0.1 uM
Assay type: cell-based
API: value field is a number in %; no unit string.

# get_value(readout='inhibition', item= C[C@@H]1CN(S(=O)(=O)c2cccc(C(F)(F)F)c2)[C@@H](C)CN1C[C@@]1(O)CC[C@@]2(C)[C@@H](CC[C@@H]3[C@@H]2CC[C@]2(C)C(=O)CC[C@@H]32)C1 )
91

# get_value(readout='inhibition', item= C[C@]12CC[C@@]3(C[C@@H]1CC[C@@H]1[C@@H]2CC[C@]2(C)C(=O)CC[C@@H]12)CN(CCN1CCCCC1)C(=O)O3 )
0

# get_value(readout='inhibition', item= C[C@]12CC[C@](O)(CN3CCN(Cc4ccc(C(F)(F)F)cc4C(F)(F)F)CC3)C[C@@H]1CC[C@@H]1[C@@H]2CC[C@]2(C)C(=O)CC[C@@H]12 )
75

# get_value(readout='inhibition', item= C[C@]12CC[C@@]3(C[C@@H]1CC[C@@H]1[C@@H]2CC[C@]2(C)C(=O)CC[C@@H]12)CN(C1CCCCC1)C(=O)O3 )
75

# get_value(readout='inhibition', item= C[C@]12CC[C@@]3(C[C@@H]1CC[C@@H]1[C@@H]2CC[C@]2(C)C(=O)CC[C@@H]12)CN(Cc1cc(C(F)(F)F)cc(C(F)(F)F)c1)C(=O)O3 )
66

# get_value(readout='inhibition', item= C[C@@H]1CN(Cc2cccnc2)[C@@H](C)CN1C[C@@]1(O)CC[C@@]2(C)[C@@H](CC[C@@H]3[C@@H]2CC[C@]2(C)C(=O)CC[C@@H]32)C1 )
47

====

What inhibition was measured for each of the following?
target.or.system: 17-beta-hydroxysteroid dehydrogenase type 3 (Homo sapiens)
assay.protocol: Inhibition of 17Beta-HSD3 expressed in homogenized HEK293 cells assessed as transformation of [14C]-4-androstene-3,17-dione into [14C]-testosterone in presence of NADPH at 0.01 uM
Assay type: cell-based
API: value field is a number in %; no unit string.

# get_value(readout='inhibition', item= C[C@@H]1CN(Cc2ccccc2C(F)(F)F)[C@@H](C)CN1C[C@@]1(O)CC[C@@]2(C)[C@@H](CC[C@@H]3[C@@H]2CC[C@]2(C)C(=O)CC[C@@H]32)C1 )
22

# get_value(readout='inhibition', item= Cc1cccc(S(=O)(=O)CCN2C[C@]3(CC[C@@]4(C)[C@@H](CC[C@@H]5[C@@H]4CC[C@]4(C)C(=O)CC[C@@H]54)C3)OC2=O)c1 )
0

# get_value(readout='inhibition', item= C[C@]12CC[C@@]3(C[C@@H]1CC[C@@H]1[C@@H]2CC[C@]2(C)C(=O)CC[C@@H]12)CN(CCC(CN1CCOCC1)OC(=O)CCC1CCCC1)C(=O)O3 (stereo partly drawn) )
2
